Sourced from ChEMBL document CHEMBL5113519

Method summary: Cytotoxicity against human GM00637 cells assessed as inhibition of cell growth measured after 24 hrs by CCK-8 method
Assay type: toxicity, cell-based
Value kind: IC50 at 24 h

Record Cc1nc2cnc3ccc(-c4cc(Cl)c(O)c(Cl)c4)cc3c2n1C1CCN(C)CC1 , field IC50 at 24 h: > 10 µM

* * *

System: Nuclear factor NF-kappa-B complex (Homo sapiens, UniProt P19838+Q00653+Q04206)
Sequence (P19838 1-433 limits assumed): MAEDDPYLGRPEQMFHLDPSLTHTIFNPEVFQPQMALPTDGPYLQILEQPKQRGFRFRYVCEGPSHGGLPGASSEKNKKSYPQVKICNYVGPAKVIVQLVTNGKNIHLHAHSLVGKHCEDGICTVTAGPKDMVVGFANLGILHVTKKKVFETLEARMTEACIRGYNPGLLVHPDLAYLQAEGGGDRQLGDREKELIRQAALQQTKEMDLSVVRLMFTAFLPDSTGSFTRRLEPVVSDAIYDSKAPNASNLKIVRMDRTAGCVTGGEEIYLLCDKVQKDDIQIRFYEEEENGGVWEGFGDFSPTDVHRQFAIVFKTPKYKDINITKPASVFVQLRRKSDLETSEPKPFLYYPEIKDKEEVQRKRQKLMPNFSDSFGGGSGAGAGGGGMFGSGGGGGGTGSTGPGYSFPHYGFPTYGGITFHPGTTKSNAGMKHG
Sequence (Q00653 1-454 limits assumed): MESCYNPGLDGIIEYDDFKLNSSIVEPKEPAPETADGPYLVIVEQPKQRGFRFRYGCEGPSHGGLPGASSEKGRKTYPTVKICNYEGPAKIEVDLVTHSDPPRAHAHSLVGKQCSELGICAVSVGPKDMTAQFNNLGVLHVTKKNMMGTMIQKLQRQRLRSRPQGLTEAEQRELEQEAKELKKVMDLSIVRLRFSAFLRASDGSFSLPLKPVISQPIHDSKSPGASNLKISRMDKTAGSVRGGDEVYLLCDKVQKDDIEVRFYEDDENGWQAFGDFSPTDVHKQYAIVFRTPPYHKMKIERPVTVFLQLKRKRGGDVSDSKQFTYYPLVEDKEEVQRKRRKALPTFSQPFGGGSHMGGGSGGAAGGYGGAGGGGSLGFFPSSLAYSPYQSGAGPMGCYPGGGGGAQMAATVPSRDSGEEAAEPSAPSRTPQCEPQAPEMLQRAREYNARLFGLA
Sequence (Q04206 whole entry): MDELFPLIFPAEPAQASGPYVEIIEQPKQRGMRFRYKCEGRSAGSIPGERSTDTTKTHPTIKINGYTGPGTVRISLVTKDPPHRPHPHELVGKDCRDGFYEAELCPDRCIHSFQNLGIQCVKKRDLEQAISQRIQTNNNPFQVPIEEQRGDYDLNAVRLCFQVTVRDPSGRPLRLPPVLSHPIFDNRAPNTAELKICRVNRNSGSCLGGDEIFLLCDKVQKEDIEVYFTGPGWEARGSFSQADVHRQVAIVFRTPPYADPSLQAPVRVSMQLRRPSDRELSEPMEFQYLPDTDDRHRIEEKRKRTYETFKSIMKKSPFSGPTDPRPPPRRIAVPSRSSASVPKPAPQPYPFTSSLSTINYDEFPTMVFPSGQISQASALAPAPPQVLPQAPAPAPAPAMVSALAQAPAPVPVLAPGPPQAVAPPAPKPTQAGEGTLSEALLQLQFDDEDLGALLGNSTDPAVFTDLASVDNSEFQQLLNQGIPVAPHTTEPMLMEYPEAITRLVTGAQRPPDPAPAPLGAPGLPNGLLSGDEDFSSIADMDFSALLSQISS
Method summary: Inhibition of NF kappa B activation (unknown origin)
Value kind: pIC50
Remember, pIC50 is on a log scale: it is -log10 of the molar concentration.

Record O=C(c1ccccc1)c1ccc2nc(NC(=O)c3csc(C4CCN(c5ncnc6ccsc56)CC4)n3)[nH]c2c1 , field pIC50: 6.70
